- system-under-test: beta-galactosidase (Escherichia coli, UniProt P00722)
- Construct: one convenient source of beta-galactosidase is bacteria which produce this enzyme in useful amounts; endogenous in cells; host or cells: E. coli EW1b (Coli Genetic Stock Culture, Yale University), IPTG-induced, freeze-dried in trehalose, rehydrated
- Sequence (P00722 2-1024): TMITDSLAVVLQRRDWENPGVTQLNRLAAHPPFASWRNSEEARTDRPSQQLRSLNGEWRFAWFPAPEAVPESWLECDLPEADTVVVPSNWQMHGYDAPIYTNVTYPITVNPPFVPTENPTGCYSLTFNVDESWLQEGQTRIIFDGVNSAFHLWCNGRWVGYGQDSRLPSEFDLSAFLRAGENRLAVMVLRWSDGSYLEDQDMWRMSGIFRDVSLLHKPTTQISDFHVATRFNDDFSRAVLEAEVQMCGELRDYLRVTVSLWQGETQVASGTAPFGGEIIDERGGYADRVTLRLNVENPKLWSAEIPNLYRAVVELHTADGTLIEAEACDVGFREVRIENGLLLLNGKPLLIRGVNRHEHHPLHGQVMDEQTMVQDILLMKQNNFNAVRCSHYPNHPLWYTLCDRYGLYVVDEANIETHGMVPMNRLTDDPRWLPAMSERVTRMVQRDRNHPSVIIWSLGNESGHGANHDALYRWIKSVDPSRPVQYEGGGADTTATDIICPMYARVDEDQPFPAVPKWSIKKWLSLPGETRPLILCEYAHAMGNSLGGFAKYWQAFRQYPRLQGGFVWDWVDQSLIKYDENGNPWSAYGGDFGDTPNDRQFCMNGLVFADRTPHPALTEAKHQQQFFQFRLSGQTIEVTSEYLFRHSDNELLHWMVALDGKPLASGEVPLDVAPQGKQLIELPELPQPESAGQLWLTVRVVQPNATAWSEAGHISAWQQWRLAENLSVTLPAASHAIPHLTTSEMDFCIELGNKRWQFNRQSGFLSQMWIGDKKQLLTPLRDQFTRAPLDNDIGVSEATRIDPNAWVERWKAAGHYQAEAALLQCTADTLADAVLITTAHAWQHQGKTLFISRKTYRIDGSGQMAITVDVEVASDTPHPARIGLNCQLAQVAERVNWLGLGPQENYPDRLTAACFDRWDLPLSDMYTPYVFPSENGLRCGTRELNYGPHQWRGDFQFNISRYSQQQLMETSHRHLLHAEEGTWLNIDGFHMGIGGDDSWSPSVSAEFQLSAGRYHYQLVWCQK
- Type: biochemical, E. coli EW1b
- measurement-conditions: MetPAD
result-type: MIC (Minimum Inhibitory Concentration) (µg/mL)

O.O.O.O.O.O=S(=O)([O-])[O-].[Cu+2] : 0.5
O=[N+]([O-])[O-].O=[N+]([O-])[O-].[Pb+2] : 5.0
O.O.O.O.O.O.O=S(=O)([O-])[O-].[Ni+2] : 8.0
O=S(=O)([O-])[O-].[Cd+2] : 0.2

###

// Minimum inhibitory concentration (MIC), fluorescent pads lookup, one value per entry
- system-under-test: beta-galactosidase (Escherichia coli)
- Construct: one convenient source of beta-galactosidase is bacteria which produce this enzyme in useful amounts; endogenous in cells; host or cells: E. coli EW1b (Coli Genetic Stock Culture, Yale University), IPTG-induced, freeze-dried in trehalose, rehydrated
- Format: biochemical, E. coli EW1b
- measurement-conditions: Fluorescent (MUGA) pads
result-type: Minimum inhibitory concentration (MIC), fluorescent pads

O=[N+]([O-])[O-].O=[N+]([O-])[O-].[Pb+2] [Lead (Pb(NO3)2), Lead] : 2.50 µg/mL
O.O.O.O.O.O.O=S(=O)([O-])[O-].[Ni+2] [Ni (NiSO4.6H2 O), Nickel] : 5.00 µg/mL
O=S(=O)([O-])[O-].[Cd+2] [Cadmium (CdSO4), Cadmium] : 0.30 µg/mL
O.O.O.O.O.O=S(=O)([O-])[O-].[Cu+2] [Copper (CuSO4.5H2 O), Copper] : 0.25 µg/mL
O=S(=O)([O-])[O-].[Zn+2] [Zinc (ZnSO4), Zinc] : 0.50 µg/mL

###

The following compounds are shown together with reported Minimum inhibitory concentration (MIC), CPRG pads values.
- system-under-test: beta-galactosidase (Escherichia coli)
- Construct: one convenient source of beta-galactosidase is bacteria which produce this enzyme in useful amounts; endogenous in cells; host or cells: E. coli EW1b (Coli Genetic Stock Culture, Yale University), IPTG-induced, freeze-dried in trehalose, rehydrated
- Type: biochemical, E. coli EW1b
- measurement-conditions: CPRG pads
result-type: Minimum inhibitory concentration (MIC), CPRG pads (µg/mL)

O.O.O.O.O.O.O=S(=O)([O-])[O-].[Ni+2] [Ni (NiSO4.6H2 O), Nickel] : 8.00
O=S(=O)([O-])[O-].[Cd+2] [Cadmium (CdSO4), Cadmium] : 0.30
O.O.O.O.O.O=S(=O)([O-])[O-].[Cu+2] [Copper (CuSO4.5H2 O), Copper] : 0.50
O=[N+]([O-])[O-].O=[N+]([O-])[O-].[Pb+2] [Lead (Pb(NO3)2), Lead] : 5.00
